# IC50 values compiled below
Molecular target: Epidermal growth factor receptor (Homo sapiens, UniProt P00533, C797S/EX19DEL/T790M)
Sequence (P00533 whole entry, looked up, stated change not applied): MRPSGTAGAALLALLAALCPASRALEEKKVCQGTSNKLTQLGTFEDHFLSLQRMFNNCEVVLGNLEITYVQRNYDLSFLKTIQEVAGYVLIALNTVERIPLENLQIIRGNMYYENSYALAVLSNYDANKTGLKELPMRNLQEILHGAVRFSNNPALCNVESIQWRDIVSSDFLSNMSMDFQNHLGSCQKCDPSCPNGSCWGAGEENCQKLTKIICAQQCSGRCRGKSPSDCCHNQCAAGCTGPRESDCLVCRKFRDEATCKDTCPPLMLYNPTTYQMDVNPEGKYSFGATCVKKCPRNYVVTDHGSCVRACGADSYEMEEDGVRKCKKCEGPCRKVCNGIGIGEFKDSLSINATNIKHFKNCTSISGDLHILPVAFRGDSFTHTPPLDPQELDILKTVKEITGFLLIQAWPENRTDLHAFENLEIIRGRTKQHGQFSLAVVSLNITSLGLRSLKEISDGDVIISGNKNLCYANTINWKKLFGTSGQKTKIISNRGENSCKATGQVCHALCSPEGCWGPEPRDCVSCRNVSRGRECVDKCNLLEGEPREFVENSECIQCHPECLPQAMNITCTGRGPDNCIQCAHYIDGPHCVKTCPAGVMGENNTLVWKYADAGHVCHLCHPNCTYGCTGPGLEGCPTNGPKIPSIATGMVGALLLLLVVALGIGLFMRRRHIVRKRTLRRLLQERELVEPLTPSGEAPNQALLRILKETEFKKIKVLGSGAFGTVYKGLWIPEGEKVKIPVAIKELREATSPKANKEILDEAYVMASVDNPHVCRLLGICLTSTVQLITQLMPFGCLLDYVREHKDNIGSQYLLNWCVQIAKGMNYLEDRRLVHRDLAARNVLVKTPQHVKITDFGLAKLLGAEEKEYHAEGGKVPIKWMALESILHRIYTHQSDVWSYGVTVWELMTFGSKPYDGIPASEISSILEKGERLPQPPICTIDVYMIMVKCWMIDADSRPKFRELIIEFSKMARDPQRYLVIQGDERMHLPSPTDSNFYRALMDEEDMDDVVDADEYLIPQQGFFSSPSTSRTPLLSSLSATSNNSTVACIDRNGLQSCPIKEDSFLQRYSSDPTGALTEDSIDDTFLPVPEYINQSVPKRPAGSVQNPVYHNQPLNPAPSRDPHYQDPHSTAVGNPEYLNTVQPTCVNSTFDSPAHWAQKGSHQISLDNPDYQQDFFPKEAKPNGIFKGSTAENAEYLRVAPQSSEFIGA
Experiment: Inhibition of EGFR del19/T790M/C797S triple mutant (unknown origin) in presence of ATP by FRET assay

{"columns": ["STRUCTURE", "IC50"],
 "data": [
  ["CCc1cc(Nc2ncc(Br)c(Nc3ccc4c(c3P(C)(C)=O)OCO4)n2)c(OC)cc1N1CCC(N2CC(N(C)C)C2)CC1", "0.15 nM"],
  ["CCc1cc(Nc2ncc(Br)c(Nc3ccc4c(c3P(C)(C)=O)OCCO4)n2)c(OC)cc1N1CCC(N2CC(N(C)C)C2)CC1", "0.08 nM"],
  ["CCS(=O)(=O)n1cc2c3ccc(cc31)OCCCCCCOc1cc(c(C3CC3)cc1N1CCOCC1)Nc1ncc(Cl)c-2n1", "56.4 nM"],
  ["COc1cc(N2CCC(N3CCN(C)CC3)CC2)ccc1Nc1ncc(Cl)c(-c2cn(S(=O)(=O)C(C)C)c3ccccc23)n1", "33.3 nM"],
  ["CCS(=O)(=O)n1cc2c3cc(ccc31)OCCCCCOc1cc(ccc1N1CCOCC1)Nc1ncc(Cl)c-2n1", "19 nM"]
]}

###

Assay: Antiproliferative activity against mouse Ba/F3 EGFR-T790M/C797S/L858R cells
Format: functional, cell-based
pIC50: −log10 of the molar value.
QUANTITY: pIC50

{"columns": ["STRUCTURE", "VALUE_REPORTED"],
 "data": [
  ["CN(C)C1CCN(c2ccc(Nc3ncc(Br)c(Nc4ccccc4NS(=O)(=O)C4CC4)n3)cc2NS(C)(=O)=O)CC1", 6.11]
]}

###

# pIC50 values compiled below
Target: Epidermal growth factor receptor (Homo sapiens, UniProt P00533, C797S/EX19DEL/T790M)
Assay: Inhibition of EGFR del19/T790M/C797S triple mutant (unknown origin) in presence of ATP by FRET assay
pIC50: −log10 of the molar value.

{"columns": ["STRUCTURE", "VALUE_MODIFIER", "pIC50"],
 "data": [
  ["CCS(=O)(=O)n1cc(-c2nc(Nc3cc(Cl)c(N4CCC(N5CCN(C)CC5)CC4)cc3OC)ncc2Cl)c2ccccc21", "=", 7.62],
  ["COc1cc(N2CCC(N(C)C)CC2)c(-c2cnn(C)c2)cc1Nc1ncc(Cl)c(Nc2ccccc2P(C)(C)=O)n1", "=", 9.72],
  ["CCS(=O)(=O)n1cc2c3cc(ccc31)OCCCCCCCOc1cc(ccc1N1CCOCC1)Nc1ncc(Cl)c-2n1", "=", 7.72],
  ["COc1cc(N2CCN(C)CC2)c(-c2cn[nH]c2)cc1Nc1ncc(Cl)c(Nc2ccccc2P(C)(C)=O)n1", "=", 9.64],
  ["CCS(=O)(=O)n1cc2c3ccc(cc31)OCCCCCOc1cc(ccc1N1CCOCC1)Nc1ncc(Cl)c-2n1", "=", 6.85],
  ["CCS(=O)(=O)n1cc2c3ccc(cc31)OCCCCCCOc1cc(c(C)cc1N1CCOCC1)Nc1ncc(Cl)c-2n1", "=", 7.63],
  ["COc1cc(N2CCC(N3CCN(C)CC3)CC2)ccc1Nc1ncc(Cl)c(-c2cn(S(=O)(=O)C3CC3)c3ccccc23)n1", "=", 7.59],
  ["CCS(=O)(=O)n1cc2c3cc(ccc31)OCCCCCCOc1cc(ccc1N1CCOCC1)Nc1ncc(Cl)c-2n1", "=", 8.21],
  ["CCS(=O)(=O)n1cc2c3cc(ccc31)OCCCCOc1cc(ccc1N1CCOCC1)Nc1ncc(Cl)c-2n1", "<", 6.00],
  ["CCS(=O)(=O)n1cc2c3ccc(cc31)OCCCCCCOc1cc(c(Cl)cc1N1CCOCC1)Nc1ncc(Cl)c-2n1", "=", 8.21],
  ["COc1cc(N2CCC(N3CCN(C)CC3)CC2)c(-c2cnn(C)c2)cc1Nc1ncc(Cl)c(Nc2ccccc2P(C)(C)=O)n1", "=", 9.49],
  ["CCS(=O)(=O)n1cc2c3cc(ccc31)OCCCCCCCCOc1cc(ccc1N1CCOCC1)Nc1ncc(Cl)c-2n1", "=", 7.05],
  ["CCP(=O)(CC)c1ccccc1Nc1nc(Nc2cc(-c3cnn(C)c3)c(N3CCOCC3)cc2OC)ncc1Cl", "=", 9.70],
  ["COCC1CN(C2CCN(c3cc(OC)c(Nc4ncc(Br)c(Nc5ccc6nccnc6c5P(C)(C)=O)n4)cc3C)CC2)C1", "=", 9.15],
  ["COc1cc(N2CCOCC2)c(-c2cnn(C)c2)cc1Nc1ncc(Cl)c(Nc2ccccc2P(C)(C)=O)n1", "=", 9.70],
  ["CCS(=O)(=O)n1cc2c3ccc(cc31)OCCCCCCOc1cc(ccc1N1CCOCC1)Nc1ncc(Cl)c-2n1", "=", 7.24]
]}
